Measured MCF7 pAkt IC50, listed per entry.
# target_or_system: human HER3 endogenously expressed on human cancer cells (SK-Br-3, BT-474, MCF7) (human, UniProt P21860 20-1342)
# assay: cell-based or functional assay
Write the number in pM without appending the unit.

binder	quantity_unit	MCF7 pAkt IC50
MOR13655 (antibody, human IgG1, lambda, V domains shown, Tested as IgG) VH: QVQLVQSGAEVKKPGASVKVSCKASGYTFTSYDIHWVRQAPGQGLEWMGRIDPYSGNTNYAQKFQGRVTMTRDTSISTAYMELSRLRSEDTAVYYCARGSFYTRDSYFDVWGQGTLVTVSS VL: DIALTQPASVSGSPGQSITISCTGTSSDVGTYNQVSWYQQHPGKAPKLMIYGVSKRPSGVSNRFSGSKSGNTASLTISGLQAEDEADYYCSSATQKPDVTVFGGGTKLTVLG	pM	251
MOR12604 (antibody, V domains shown, Tested as IgG) VH: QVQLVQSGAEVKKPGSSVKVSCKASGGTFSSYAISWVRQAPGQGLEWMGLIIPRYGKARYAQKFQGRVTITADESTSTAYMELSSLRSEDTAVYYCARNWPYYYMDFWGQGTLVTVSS VL: DIVLTQSPATLSLSPGERATLSCRASQNIVFNLAWYQQKPGQAPRLLIYDASNRATGVPARFSGSGSGTDFTLTISSLEPEDFAVYYCQQKKSMPLTFGQGTKVEIKR	pM	235
MOR13666 (antibody, human IgG1, lambda, V domains shown, Tested as IgG) VH: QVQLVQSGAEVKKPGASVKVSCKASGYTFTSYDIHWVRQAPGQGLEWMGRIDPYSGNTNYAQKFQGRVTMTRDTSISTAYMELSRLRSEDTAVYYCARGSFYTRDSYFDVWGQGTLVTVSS VL: DIALTQPASVSGSPGQSITISCTGTSSDVGTYNQVSWYQQHPGKAPKLMIYGVSKRPSGVSNRFSGSKSGNTASLTISGLQAEDEADYYCSTTTYSFHMVFGGGTKLTVLG	pM	49

## Input Item MOR13657 (antibody, human IgG1, lambda, V domains shown, Tested as IgG) VH: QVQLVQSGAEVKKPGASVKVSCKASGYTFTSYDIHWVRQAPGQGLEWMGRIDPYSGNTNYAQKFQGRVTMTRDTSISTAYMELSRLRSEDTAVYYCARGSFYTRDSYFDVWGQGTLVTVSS VL: DIALTQPASVSGSPGQSITISCTGTSSDVGTYNQVSWYQQHPGKAPKLMIYGVSKRPSGVSNRFSGSKSGNTASLTISGLQAEDEADYYCSARDGWSEYVFGGGTKLTVLG : provide MCF7 pAkt IC50
## Output 385
